The entries below are paired with their reported z-score.
Experiment: growth effects on S. cerevisiae YJM789 – YJM789 clinical isolate, OD600, 24 h, basal, primary screen (AID 1089);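 further: growth of clinical yeast isolate S. cerevisiae YJM 789 seeded 1000 cells per well; test concentration not given here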
Conditions: higher = more signal, called active from +8 up or from −8 down

[
  {
    "Smiles Notation": "COc1ccccc1CN1C(=O)c2ccccc2[C@](Cc2ccccc2I)(C(=O)O)[C@@H]1c1ccc(CO)cc1",
    "z-score": 0.443
  },
  {
    "Smiles Notation": "CC(C)=C1C(=O)C(c2ccccc2)=C2CN3C(=O)N(CCc4ccccc4)C(=O)[C@]3(Cc3ccc(C(F)(F)F)cc3)[C@H]21",
    "z-score": -0.117
  },
  {
    "Smiles Notation": "CCCN1C(=O)[C@]2(Cc3ccccc31)N=C(c1ccc(OCCCO)cc1)O[C@@H]2c1ccccc1",
    "z-score": -1.49
  },
  {
    "Smiles Notation": "CCCCNC(=O)c1ccc(C#CC(C)(C)C)c(OC(C)=O)c1",
    "z-score": 0.0582
  },
  {
    "Smiles Notation": "COc1ccc([Si](C)(C)[C@H]2[C@H](CC(=O)N3Cc4ccccc4C[C@H]3CO)O[C@@]3(C(=O)N(Cc4ccc(N5CCOC5=O)cc4)c4ccccc43)[C@@H]2C)cc1",
    "z-score": -1.31
  },
  {
    "Smiles Notation": "C=C(/C(=C/C[C@H](OC(=O)c1ccncc1)c1ccc(CO)o1)c1cnc2ccccc2c1)C(C)C",
    "z-score": 1.22
  }
]

These data points were gathered from PubChem BioAssay.
